# system name: UniProt:Q9UM07
# procedure text: RFMS human PAD4 functional assay (rapid-fire mass spectrum)
# protocol conditions: 5 nM hPAD4 enzyme, 250 μM BAEE, 50 μM Calcium; 30 min preincubation, 90 min reaction at 37° C.
reported endpoint: IC50 (µM)

Field: example entries. Status: answers known.
- molecule: "Cc1cc(C(=O)N2CC3CCC2[C@@H]3N)cc2nc(-c3cc4ccccc4n3CC3CC3)n(CC3CN(C(=O)c4ccccc4)C3)c12 (stereo partly drawn)"
  IC50, µM: 0.046
- molecule: "COc1cc(C(=O)N2CC3CCC2[C@@H]3N)cc2nc(-c3cc4ccccc4n3CC3CC3)n(CCc3cn[nH]c3)c12 (stereo partly drawn)"
  IC50, µM: 0.289
- molecule: "COc1cc(C(=O)N2C[C@H]3CC[C@@H]2[C@@H]3N)cc2nc(-c3cc4ccc(Cl)cc4n3CC3CC3)n(CC3CN(c4ccnc(C5CC5)n4)C3)c12"
  IC50, µM: 0.157
- molecule: "COc1cc(C(=O)N2CC3CCC2[C@@H]3N)cc2nc(-c3cc4ccccc4n3CC3CC3)n(Cc3cnn(-c4cccc(C)n4)c3)c12 (stereo partly drawn)"
  IC50, µM: 0.037
- molecule: "COc1cc(C(=O)N2C[C@H]3CC[C@@H]2[C@@H]3N)cc2nc(-c3cc4cccnc4n3CC3CC3)n(CC3CN(c4ncc(Br)cn4)C3)c12"
  IC50, µM: 0.086

A = COc1cc(C(=O)N2CC3CCC2[C@@H]3N)cc2nc(-c3cc4ccccc4n3CC3CC3)n(CC3CN(C(=O)c4cncs4)C3)c12 (stereo partly drawn)
B = COc1cc(C(=O)N2CC3CCC2[C@@H]3N)cc2nc(-c3cc4cccnc4n3CC3CC3)n(CC3CN(C(=O)c4ccc(Cl)cc4)C3)c12 (stereo partly drawn)
Task: Lower IC50: A or B ? // output: label of the selected item
Output: B

P = COc1cc(C(=O)N2C[C@H]3CC[C@@H]2[C@@H]3N)cc2nc(-c3cc4cccnc4n3CC3CC3)n(CC3CN(c4ccnc(C)n4)C3)c12
Q = COc1cc(C(=O)N2CC3CCC2[C@@H]3N)cc2nc(-c3cc4cccnc4n3CC3CC3)n([C@H]3C[C@H](NS(C)(=O)=O)C3)c12 (stereo partly drawn)
Task: Just curious, which one has the larger IC50 reading, P or Q ? // output: label of the selected item
Output: Q

I = COc1cc(C(=O)N2CC3CCC2[C@@H]3N)cc2nc(-c3cc4cccnc4n3CC3CC3)n(CC3(F)CN(C(=O)c4ccccc4)C3)c12 (stereo partly drawn)
II = COc1cc(C(=O)N2CC3CCC2[C@@H]3N)cc2nc(-c3cc4ccccc4n3CC3CC3)n(CC3CN(C(=O)c4cc(C)nc(C)c4)C3)c12 (stereo partly drawn)
III = COc1cc(C(=O)N2CC3CCC2[C@@H]3N)cc2nc(-c3cc4cccnc4n3CC3CC3)n(Cc3cnn(-c4cncnc4)c3)c12 (stereo partly drawn)
Task: Put the items in sequence by IC50, from largest down. Please express your ranking as an ordered list of the labels.
Output: III, I, II

1 = COc1cc(C(=O)N2CC3CCC2[C@@H]3N)cc2nc(-c3cc4ccccc4n3CC3CC3)n(CC3CN(C(=O)c4ccn(C)c(=O)c4)C3)c12 (stereo partly drawn)
2 = COc1cc(C(=O)N2C[C@H]3CC[C@@H]2[C@@H]3N)cc2nc(-c3cc4ccccc4n3CC3CC3)n(CC3CN(C(=O)c4cc(C#N)ccc4F)C3)c12
3 = COc1cc(C(=O)N2C[C@H]3CC[C@@H]2[C@@H]3N)cc2nc(-c3cc4cccnc4n3CC3CC3)n(CC3CN(C(=O)C4CC4)C3)c12
Task: Hey, can you sort those molecules up there by IC50, smallest first? Please express your ranking as an ordered list of the labels.
Output: 1, 2, 3

* * *

# system name: human PAD4 (hPAD4) (Homo sapiens)
# procedure text: RFMS human PAD4 functional assay (rapid-fire mass spectrum)
# protocol conditions: 5 nM hPAD4 enzyme, 250 μM BAEE, 50 μM Calcium; 30 min preincubation, 90 min reaction at 37° C.
reported endpoint: IC50 (nM)

Field: example entries. Status: answers known.
- compound: "COc1cc(C(=O)N2C[C@H]3CC[C@@H]2[C@@H]3N)cc2nc(-c3cc4ccccc4n3CC3CC3)n(CC3CN(c4ccnc(C#N)n4)C3)c12"
  IC50 [nM]: 14
- compound: "COc1cc(C(=O)N2C[C@H]3CC[C@@H]2[C@@H]3N)cc2nc(-c3cc4cccnc4n3CC3CC3)n(C3CN(S(C)(=O)=O)C3)c12"
  IC50 [nM]: 184
- compound: "COc1cc(C(=O)N2C[C@H]3CC[C@@H]2[C@@H]3N)cc2nc(-c3cc4ccccc4n3CC3CC3)n(CCN3CCNC3=O)c12"
  IC50 [nM]: 491

I = COc1cc(C(=O)N2CC3CCC2[C@@H]3N)cc2nc(-c3cc4ccccc4n3CC3CC3)n(Cc3cnn(-c4ncccn4)c3)c12 (stereo partly drawn)
II = COc1cc(C(=O)N2C[C@H](N)C[C@@H](F)C2)cc2nc(-c3cc4ccccc4n3CC3CC3)n(CC3CC(F)(F)C3)c12
Task: Lower IC50: I or II ? // output: label of the selected item
Output: I
(I: 66 nM, II: 142 nM)

* * *

# system name: human PAD4 (hPAD4) (Homo sapiens)
# procedure text: RFMS human PAD4 functional assay (rapid-fire mass spectrum)
# protocol conditions: 5 nM hPAD4 enzyme, 250 μM BAEE, 50 μM Calcium; 30 min preincubation, 90 min reaction at 37° C.
reported endpoint: IC50 (nM)

A = COc1cc(C(=O)N2CCC[C@@H](N)C2)cc2nc(-c3cc4cccnc4n3CC3CC3)n(C3CN(S(C)(=O)=O)C3)c12
B = COc1cc(C(=O)N2C[C@H]3CC[C@@H]2[C@@H]3N)cc2nc(-c3cc4cccnc4n3CC3CC3)n(C3CN(C(=O)c4ccnc(C)n4)C3)c12
C = COc1cc(C(=O)N2CC3CCC2[C@@H]3N)cc2nc(-c3cc4cccnc4n3CC3CC3)n(Cc3cnn(-c4ccc(O)nc4)c3)c12 (stereo partly drawn)
Task: Going from lowest to highest recorded IC50, rank the entries listed above. Please express your ranking as an ordered list of the labels.
Output: C, B, A

* * *

# system name: human PAD4 (hPAD4) (Homo sapiens, UniProt Q9UM07)
# Sequence (Q9UM07 whole entry): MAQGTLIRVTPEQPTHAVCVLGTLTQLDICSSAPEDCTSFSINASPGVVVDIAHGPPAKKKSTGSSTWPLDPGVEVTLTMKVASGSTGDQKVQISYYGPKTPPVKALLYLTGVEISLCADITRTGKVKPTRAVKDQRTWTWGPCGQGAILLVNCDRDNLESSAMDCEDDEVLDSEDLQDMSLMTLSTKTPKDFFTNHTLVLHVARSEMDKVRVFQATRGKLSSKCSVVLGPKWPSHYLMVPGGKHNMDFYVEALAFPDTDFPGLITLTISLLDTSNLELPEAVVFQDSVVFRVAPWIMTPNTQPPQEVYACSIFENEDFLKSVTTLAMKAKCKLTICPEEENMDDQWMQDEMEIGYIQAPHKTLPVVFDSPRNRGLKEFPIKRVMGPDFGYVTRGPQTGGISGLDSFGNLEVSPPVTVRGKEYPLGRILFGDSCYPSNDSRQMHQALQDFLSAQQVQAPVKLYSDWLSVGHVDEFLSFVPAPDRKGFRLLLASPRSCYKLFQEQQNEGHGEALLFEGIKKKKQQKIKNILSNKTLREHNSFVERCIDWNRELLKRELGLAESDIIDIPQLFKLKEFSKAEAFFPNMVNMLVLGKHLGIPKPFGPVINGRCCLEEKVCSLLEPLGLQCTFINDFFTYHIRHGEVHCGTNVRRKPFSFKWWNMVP
# procedure text: RFMS human PAD4 functional assay (rapid-fire mass spectrum)
# protocol conditions: 5 nM hPAD4 enzyme, 250 μM BAEE, 50 μM Calcium; 30 min preincubation, 90 min reaction at 37° C.
reported endpoint: IC50 (nM)

- molecule: "COc1cc(C(=O)N2C[C@H]3CC[C@@H]2[C@@H]3N)cc2nc(-c3cc4cccnc4n3CC3CC3)n(CC3CN(c4nccnc4C#N)C3)c12"
  system name: "human PAD4 (hPAD4) (Homo sapiens, UniProt Q9UM07)"
  u: "nM"
  IC50: 47
- molecule: "COc1cc(C(=O)N2C[C@H]3CC[C@@H]2[C@@H]3N)cc2nc(-c3cc4cccnc4n3CC3CC3)n(CC3CN(C(=O)c4ccnc(Cl)n4)C3)c12"
  system name: "human PAD4 (hPAD4) (Homo sapiens, UniProt Q9UM07)"
  u: "nM"
  IC50: 108
- molecule: "COc1cc(C(=O)N2CC3CCC2[C@@H]3N)cc2nc(-c3cc4cccnc4n3CC3CC3)n(C[C@@H]3CCN(c4nccnc4C#N)C3)c12 (stereo partly drawn)"
  system name: "human PAD4 (hPAD4) (Homo sapiens, UniProt Q9UM07)"
  u: "nM"
  IC50: 81

a = COc1cc(C(=O)N2C[C@H]3CC[C@@H]2[C@@H]3N)cc2nc(-c3cc4ccccc4n3CC3CC3)n(C[C@H]3CCN(c4cncc(C#N)n4)C3)c12
b = COc1cc(C(=O)N2C[C@H]3CC[C@@H]2[C@@H]3N)cc2nc(-c3cc4ccccc4n3CC3CC3)n(Cc3ccnn3C)c12
Task: Lower IC50: a or b ? // output: label of the selected item
Output: a
(a: 16 nM, b: 65 nM)

a = COc1cc(C(=O)N2C[C@H]3CC[C@@H]2[C@@H]3N)cc2nc(-c3cc4ccccc4n3CC3CC3)n(CC3CN(C(=O)c4ccc(C(=O)O)cc4)C3)c12
b = COc1cc(C(=O)N2C[C@H]3CC[C@@H]2[C@@H]3N)cc2nc(-c3cc4ccccc4n3CC3CC3)n(CC3CN(C(=O)c4ccncc4)C3)c12
Task: Just curious, which one has the larger IC50 reading, a or b ? // output: label of the selected item
Output: a
(a: 20 nM, b: 11 nM)

1 = COc1cc(C(=O)N2C[C@H]3CC[C@@H]2[C@@H]3N)cc2nc(-c3cc4cccnc4n3CC3CC3)n(C3CN(C(=O)c4ccnc(O)c4)C3)c12
2 = COc1cc(C(=O)N2CC3CCC2[C@@H]3N)cc2nc(-c3cc4ccccc4n3CC3CC3)n(Cc3cnn(-c4ccc(C)nc4)c3)c12 (stereo partly drawn)
Task: Lower IC50: 1 or 2 ? // output: label of the selected item
Output: 2

I = COc1cc(C(=O)N2C[C@H]3CC[C@@H]2[C@@H]3N)cc2nc(-c3cc4ccccc4n3CC3CC3)n(CC3CN(C(=O)c4cccnc4)C3)c12
II = COc1cc(C(=O)N2CC3CCC2[C@@H]3N)cc2nc(-c3csc4ccc(Cl)cc34)n(CC3CN(c4ccnc(C(N)=O)n4)C3)c12 (stereo partly drawn)
Task: Just curious, which one has the larger IC50 reading, I or II ? // output: label of the selected item
Output: II
(II: 1350 nM, I: 41 nM)
